Field: AC50. Provide a value for each of the molecules that follow.
molecular target: Sodium-dependent dopamine transporter (Homo sapiens, UniProt Q01959); further: assay procedure not described here
Sequence (Q01959 whole entry): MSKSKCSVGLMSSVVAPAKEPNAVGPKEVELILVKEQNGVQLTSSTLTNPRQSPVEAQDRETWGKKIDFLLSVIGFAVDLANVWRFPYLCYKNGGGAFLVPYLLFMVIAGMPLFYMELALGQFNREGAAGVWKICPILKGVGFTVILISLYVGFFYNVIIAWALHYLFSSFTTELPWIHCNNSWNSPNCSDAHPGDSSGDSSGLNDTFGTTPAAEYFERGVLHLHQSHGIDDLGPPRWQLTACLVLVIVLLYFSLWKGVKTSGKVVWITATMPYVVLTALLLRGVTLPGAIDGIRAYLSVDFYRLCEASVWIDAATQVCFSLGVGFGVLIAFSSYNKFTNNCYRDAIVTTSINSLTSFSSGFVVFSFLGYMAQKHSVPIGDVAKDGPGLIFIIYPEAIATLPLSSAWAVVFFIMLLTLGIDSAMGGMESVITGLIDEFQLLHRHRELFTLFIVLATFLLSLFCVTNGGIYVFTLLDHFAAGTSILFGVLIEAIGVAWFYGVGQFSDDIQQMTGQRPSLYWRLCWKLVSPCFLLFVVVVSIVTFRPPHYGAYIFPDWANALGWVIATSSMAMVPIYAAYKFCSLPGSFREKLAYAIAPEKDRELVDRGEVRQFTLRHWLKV

Below: 5 molecules and their reported AC50.
molecule	value_observed
C=CC1=C(C(=O)O)N2C(=O)[C@@H](NC(=O)/C(=N\OCC(=O)O)c3csc(N)n3)[C@H]2SC1	> 30 µM
C[C@H]1Oc2cc(cnc2N)-c2c(nn(C)c2C#N)CN(C)C(=O)c2ccc(F)cc21	> 30 µM
CC1(C)O[C@@H]2C[C@H]3[C@@H]4C[C@H](F)C5=CC(=O)C=C[C@]5(C)[C@H]4[C@@H](O)C[C@]3(C)[C@]2(C(=O)CO)O1 [FLUNISOLIDE]	> 30 µM
CC(=O)c1ccc2c(c1)N(CCCN1CCC(CCO)CC1)c1ccccc1S2	7.6 µM
CN(C)c1cc(NC(=O)CNC(C)(C)C)c(O)c2c1C[C@H]1C[C@H]3[C@H](N(C)C)C(O)=C(C(N)=O)C(=O)[C@@]3(O)C(O)=C1C2=O	> 30 µM

Lab note: each molecule below needs its AC50 filled in.
1. CC(=O)S[C@@H]1CC2=CC(=O)CC[C@]2(C)[C@H]2CC[C@@]3(C)[C@@H](CC[C@@]34CCC(=O)O4)[C@H]12
2. CCOC(=O)Nc1ccc2c(c1)N(C(=O)CCN1CCOCC1)c1ccccc1S2
3. N#Cc1ccccc1-c1cc(-c2ccccn2)cn(-c2ccccc2)c1=O
4. CCN(CC)CCOC(=O)c1ccc(N)cc1Cl
5. OCCN1CCN(CC/C=C2/c3ccccc3Sc3ccc(Cl)cc32)CC1
6. CC(=O)OCC[N+](C)(C)C
7. Clc1cccc(Cl)c1N=C1NCCN1
8. C#C[C@]1(O)CC[C@H]2[C@@H]3CCc4cc(OC)ccc4[C@H]3CC[C@@]21C

Reply text:
> 30 µM
> 30 µM
> 30 µM
> 30 µM
1 µM
> 30 µM
> 10 µM
20 µM

Lab note: each molecule below needs its AC50 filled in.
1. [H]/N=C(/N)N[C@H]1[C@H](O)[C@@H](O)[C@H](O[C@@H]2O[C@@H](C)[C@](O)(C=O)[C@H]2O[C@@H]2O[C@@H](CO)[C@H](O)[C@@H](O)[C@@H]2NC)[C@@H](N/C(N)=N\[H])[C@@H]1O
2. Clc1ccc2c(c1)C(c1ccccc1)=NCc1nncn1-2

Reply text:
1. > 30 µM
2. > 30 µM

====

target: Alpha-1A adrenergic receptor (Homo sapiens, UniProt P35348); format: functional, cell-based
Sequence (P35348 whole entry): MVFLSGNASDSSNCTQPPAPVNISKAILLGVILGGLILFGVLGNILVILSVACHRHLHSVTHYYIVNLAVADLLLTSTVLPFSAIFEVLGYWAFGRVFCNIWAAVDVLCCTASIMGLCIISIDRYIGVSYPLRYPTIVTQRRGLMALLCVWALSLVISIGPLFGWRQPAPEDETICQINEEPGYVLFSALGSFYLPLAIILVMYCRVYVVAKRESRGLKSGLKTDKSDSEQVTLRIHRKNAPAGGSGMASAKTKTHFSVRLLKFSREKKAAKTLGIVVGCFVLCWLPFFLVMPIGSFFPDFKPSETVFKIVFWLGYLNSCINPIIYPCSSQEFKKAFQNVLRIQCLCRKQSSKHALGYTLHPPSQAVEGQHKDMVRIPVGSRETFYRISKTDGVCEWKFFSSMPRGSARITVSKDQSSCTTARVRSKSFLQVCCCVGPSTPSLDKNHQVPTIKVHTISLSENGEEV
Field: AC50. Provide a value for each of the compounds that follow.

Below: 4 compounds and their reported AC50.
compound	AC50
Nc1ncnc(Nc2ccc(Cl)cc2)n1	> 30 µM
CCC(=O)O[C@]1(C(=O)COC(C)=O)CC[C@H]2[C@@H]3CCC4=CC(=O)CC[C@]4(C)[C@H]3[C@@H](O)C[C@@]21C [HYDROCORTISONE ACEPONATE]	> 30 µM
COc1cc([C@@H]2c3cc4c(cc3[C@@H](O[C@@H]3O[C@@H]5CO[C@@H](c6cccs6)O[C@H]5[C@H](O)[C@H]3O)[C@H]3COC(=O)[C@H]23)OCO4)cc(OC)c1O [TENIPOSIDE]	> 30 µM
CCCCNc1ccc(C(=O)OCCN(C)C)cc1	> 30 µM

Lab note: each compound below needs its AC50 filled in.
1. CC(C)COc1ccc(CNC(=O)N(Cc2ccc(F)cc2)C2CCN(C)CC2)cc1
2. O=C(CCCN1CC=C(n2c(=O)[nH]c3ccccc32)CC1)c1ccc(F)cc1

Reply text:
1. 11.4 µM
2. > 30 µM

====

biological target: Alpha-1A adrenergic receptor (Homo sapiens, UniProt P35348); type: functional, cell-based
result_type: AC50

molecule	tested_on	AC50
CCCCC[C@H](O)/C=C/[C@H]1[C@H](O)CC(=O)[C@@H]1C/C=C\CCCC(=O)O [DINOPROSTONE]	Alpha-1A adrenergic receptor (Homo sapiens, UniProt P35348)	> 30 µM
C[n+]1ccccc1/C=N/O [PRALIDOXIME]	Alpha-1A adrenergic receptor (Homo sapiens, UniProt P35348)	> 30 µM
CC(C)(C)NC[C@H](O)COc1nsnc1N1CCOCC1 [TIMOLOL]	Alpha-1A adrenergic receptor (Homo sapiens, UniProt P35348)	> 30 µM
CN1CCN(c2c(F)cc3c(=O)c(C(=O)O)cn4c3c2SCC4)CC1 [RUFLOXACIN]	Alpha-1A adrenergic receptor (Homo sapiens, UniProt P35348)	> 30 µM
CN(c1nccc(=O)[nH]1)C1CCN(c2nc3ccccc3n2Cc2ccc(F)cc2)CC1 [MIZOLASTINE]	Alpha-1A adrenergic receptor (Homo sapiens, UniProt P35348)	> 30 µM
O=C(O)CSCC(=O)NC1CCSC1=O (configuration not stated) [ERDOSTEINE]	Alpha-1A adrenergic receptor (Homo sapiens, UniProt P35348)	> 30 µM
CC(=N)N1CC[C@H](SC2=C(C(=O)O)N3C(=O)[C@H]([C@@H](C)O)[C@H]3C2)C1	Alpha-1A adrenergic receptor (Homo sapiens, UniProt P35348)	> 300 µM
CN1CCN(CCCN2c3ccccc3Sc3ccc(S(=O)(=O)N(C)C)cc32)CC1 [THIOPROPERAZINE]	Alpha-1A adrenergic receptor (Homo sapiens, UniProt P35348)	1 µM

Lab note: each molecule below needs its AC50 filled in.
1. CCCCNc1ccc(C(=O)OCCN(C)C)cc1 [TETRACAINE]
2. CC(=O)S[C@@H]1CC2=CC(=O)CC[C@]2(C)[C@H]2CC[C@@]3(C)[C@@H](CC[C@@]34CCC(=O)O4)[C@H]12 [SPIRONOLACTONE]
3. O=C1CN2Cc3c(ccc(Cl)c3Cl)N=C2N1 [ANAGRELIDE]
4. CNCCC=C1c2ccccc2CCc2ccccc21 [NORTRIPTYLINE]
5. CC(/C=C1\SC(=S)N(CC(=O)O)C1=O)=C\c1ccccc1

Reply text:
> 30 µM
> 30 µM
> 30 µM
0.036 µM
25 µM

====

biological target: D(1A) dopamine receptor (Homo sapiens, UniProt P21728); format: functional, cell-based; further: assay procedure not described here
Sequence (P21728 whole entry): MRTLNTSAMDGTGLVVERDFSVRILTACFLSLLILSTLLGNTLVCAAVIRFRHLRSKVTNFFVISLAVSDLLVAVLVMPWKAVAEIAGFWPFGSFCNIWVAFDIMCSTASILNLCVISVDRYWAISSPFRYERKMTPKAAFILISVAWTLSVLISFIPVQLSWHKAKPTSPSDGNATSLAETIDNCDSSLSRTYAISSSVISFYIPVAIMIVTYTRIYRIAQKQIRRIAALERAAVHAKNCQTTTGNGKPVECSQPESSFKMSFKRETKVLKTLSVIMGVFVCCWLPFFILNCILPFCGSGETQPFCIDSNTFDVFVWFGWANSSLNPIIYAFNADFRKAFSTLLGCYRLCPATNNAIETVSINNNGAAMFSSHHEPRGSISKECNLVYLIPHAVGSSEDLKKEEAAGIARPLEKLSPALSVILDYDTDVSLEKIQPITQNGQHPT
result_type: AC50

Below: 3 compounds and their reported AC50.
compound	tested_on	AC50
O=C(Nc1c(Cl)cncc1Cl)c1ccc(OC(F)F)c(OCC2CC2)c1	D(1A) dopamine receptor (Homo sapiens, UniProt P21728)	> 30 µM
CCCCNc1ccc(C(=O)OCCN(C)C)cc1	D(1A) dopamine receptor (Homo sapiens, UniProt P21728)	> 10 µM
CNCC[C@H](Oc1cccc2ccccc12)c1cccs1	D(1A) dopamine receptor (Homo sapiens, UniProt P21728)	> 10 µM

Lab note: each compound below needs its AC50 filled in.
1. CN1[C@@H]2CC[C@H]1C[C@@H](OC(=O)c1c[nH]c3ccccc13)C2
2. CCCCCCNC(=O)n1cc(F)c(=O)[nH]c1=O
3. CCCC(C)(COC(N)=O)COC(=O)NC(C)C (stereo not drawn)
4. CNCC[C@@H](Oc1ccccc1C)c1ccccc1
5. CCC(C)(Oc1ccc(C2(c3ccc(OC(C)(CC)C(=O)O)cc3)CCCCC2)cc1)C(=O)O (stereo not drawn) [CLINOFIBRATE]

Reply text:
1. > 30 µM
2. > 30 µM
3. > 10 µM
4. > 30 µM
5. > 30 µM

====

target: Beta-1 adrenergic receptor (Homo sapiens); type: functional; further: assay procedure not described here
Sequence (P08588 whole entry): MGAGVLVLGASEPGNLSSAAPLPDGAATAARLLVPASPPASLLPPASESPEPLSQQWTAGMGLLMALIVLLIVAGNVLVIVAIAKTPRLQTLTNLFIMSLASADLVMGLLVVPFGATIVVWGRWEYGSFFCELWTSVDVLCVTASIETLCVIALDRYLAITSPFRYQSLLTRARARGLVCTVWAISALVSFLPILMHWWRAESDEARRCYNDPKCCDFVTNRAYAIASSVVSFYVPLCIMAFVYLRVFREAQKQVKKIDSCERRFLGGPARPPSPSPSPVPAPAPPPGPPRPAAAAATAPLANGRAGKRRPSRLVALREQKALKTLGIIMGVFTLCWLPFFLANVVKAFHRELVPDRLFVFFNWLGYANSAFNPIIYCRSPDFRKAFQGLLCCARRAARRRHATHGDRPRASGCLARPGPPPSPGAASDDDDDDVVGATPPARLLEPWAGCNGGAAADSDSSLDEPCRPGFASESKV
Field: AC50. Provide a value for each of the molecules that follow.

Below: 3 molecules and their reported AC50.
molecule	AC50
CN1C[C@H](C(=O)N[C@]2(C)O[C@@]3(O)[C@@H]4CCCN4C(=O)[C@H](Cc4ccccc4)N3C2=O)C[C@@H]2c3cccc4[nH]cc(c34)C[C@H]21 [DIHYDROERGOTAMINE]	> 10 µM
NCCCC(O)(P(=O)(O)O)P(=O)(O)O [ALENDRONIC ACID]	> 10 µM
CC(C)CC(N(C)C)C1(c2ccc(Cl)cc2)CCC1 (centres undefined) [SIBUTRAMINE]	> 10 µM

Next up:
Inquiry: Field request: AC50 | item: CC(=O)OCC(CCn1cnc2cnc(N)nc21)COC(C)=O [FAMCICLOVIR]
Reply text: > 10 µM

====

Biological target: Prostaglandin G/H synthase 1 (Rattus norvegicus, UniProt Q63921); further: assay procedure not described here
Sequence (Q63921 whole entry): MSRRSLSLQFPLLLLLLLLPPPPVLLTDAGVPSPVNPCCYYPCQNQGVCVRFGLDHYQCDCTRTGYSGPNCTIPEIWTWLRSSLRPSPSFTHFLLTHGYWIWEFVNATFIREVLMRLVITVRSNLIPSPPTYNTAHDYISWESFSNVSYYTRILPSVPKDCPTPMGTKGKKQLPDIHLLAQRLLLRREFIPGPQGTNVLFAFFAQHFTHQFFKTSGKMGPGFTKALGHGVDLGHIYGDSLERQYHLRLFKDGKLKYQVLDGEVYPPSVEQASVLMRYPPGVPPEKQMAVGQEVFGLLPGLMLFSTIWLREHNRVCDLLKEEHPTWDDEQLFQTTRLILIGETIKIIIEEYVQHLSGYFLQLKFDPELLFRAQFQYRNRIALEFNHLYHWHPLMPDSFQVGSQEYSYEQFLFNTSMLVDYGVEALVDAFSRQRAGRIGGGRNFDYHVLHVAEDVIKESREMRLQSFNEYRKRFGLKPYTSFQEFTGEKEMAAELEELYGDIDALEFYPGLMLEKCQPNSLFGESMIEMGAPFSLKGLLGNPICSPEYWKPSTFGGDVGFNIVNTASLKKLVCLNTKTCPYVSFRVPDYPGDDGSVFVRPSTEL
Format: functional
result_type: AC50

Below: 2 molecules and their reported AC50.
smiles_entry	value_observed
CCCN(CCC)CCc1cccc2c1CC(=O)N2	> 30 µM
C[C@]1(COc2ccc(N3CCC(Oc4ccc(OC(F)(F)F)cc4)CC3)cc2)Cn2cc([N+](=O)[O-])nc2O1	> 30 µM

Next up:
Inquiry: Field request: AC50 | item: `OCCN1CCN(CC/C=C2/c3ccccc3Sc3ccc(Cl)cc32)CC1`
Reply text: > 10 µM
